Hello, the source for this data is patent US9963445B2, in case you need it.

Test system: Setaria faberi
assay_explanation: Post-emergence herbicidal activity, glasshouse pot test
Type: in vivo
Design: key: 0 = no damage to plant, 5 = total damage to plant
conditions: Application post-emergence, rate 1000 g/ha, evaluated after 13 days
Consider the following molecules; for each one, report its SETFA herbicidal damage score.
Answers are plain numbers.

> print(dat)
                                   molecule  result.value
1  CC1=C(Cl)C(=O)N(c2cc(/C=C/C(C)(C)C)ccn2)C1O (centres unmarked)             0

Go through the items and report each one's SETFA herbicidal damage score.
1. COC1=C(C)C(O)N(c2cc(C(F)(F)F)ccn2)C1=O (centres unmarked)
2. COC1=C(OC)C(O)N(c2cc(C)c(OC)nn2)C1=O (centres unmarked)
3. CC1=C(Cl)C(=O)N(c2cc3c(cn2)CCCC3)C1O (centres unmarked)
4. COC1=C(C)C(O)N(c2cc(C(C)(C)C)c(-c3ccc(F)nc3)nn2)C1=O (centres unmarked)
5. CC1=C(Cl)C(=O)N(c2cc([S+](C)[O-])ccn2)C1O (centres unmarked)
6. CCC(CNC(=O)c1cnc(N2C(=O)C(OC)=C(C)C2O)cc1C)C(F)(F)F (centres unmarked)

Result ::
[5, 5, 5, 5, 3, 5]

---

System: Setaria faberi
assay_explanation: Post-emergence herbicidal activity, glasshouse pot test
Format: in vivo
Design: key: 0 = no damage to plant, 5 = total damage to plant
conditions: Application post-emergence, rate 1000 g/ha, evaluated after 13 days
endpoint: SETFA herbicidal damage score
Answers are plain numbers.

> print(dat)
                                   molecule    study.target  result.value
1  CC#Cc1nnc(N2C(=O)C(OC)=C(C)C2O)cc1C(C)(F)F (stereo not drawn) [BI18]  Setaria faberi             4
2  COc1cc(N2C(=O)C(Cl)=C(C)C2O)ncn1 (stereo not drawn) [CF21]  Setaria faberi             5
3  CC1=C(Br)C(=O)N(c2cc(C(C)(C)C#N)ncn2)C1O (stereo not drawn) [CG3]  Setaria faberi             5
4  CC1=C(Cl)C(=O)N(c2cc(C(F)(F)F)ncn2)C1O (stereo not drawn) [CF3]  Setaria faberi             5
5  CC1=C(Cl)C(=O)N(c2ccc(C)cn2)C1O (stereo not drawn) [AF69]  Setaria faberi             5

Go through the items and report each one's SETFA herbicidal damage score.
1. COC(=O)c1cnc(N2C(=O)C(Cl)=C(C)C2O)cc1C(F)(F)F (stereo not drawn) [AF42]
2. COC1=C(C)C(O)N(c2cc(C(F)(F)Cl)ccn2)C1=O (stereo not drawn) [AI16]
3. COC1=C(OC)C(O)N(c2ccc(C(F)(F)F)nn2)C1=O (stereo not drawn) [BK2]

Result ::
1. 5
2. 5
3. 1

---

Test system: Alopecurus myosuroides
assay_explanation: Pre-emergence herbicidal activity, glasshouse pot test
Assay type: in vivo
conditions: pre-emergence spray, rate 1000 g/ha, evaluated after 13 days, scale 0-5
Consider the following compounds; for each one, report its ALOMY damage score, application pre-emergence.
One number for each entry.

These solved cases illustrate the format of a correct answer.
> print(dat)
                                   compound  result.value
1  CC1=C(Cl)C(=O)N(c2cc(Cl)ncn2)C1O (centres unmarked) [CF1]             3
2  COC1=C(C)C(O)N(c2ccc(N)cn2)C1=O (centres unmarked) [AI28]             1
3  COc1ccc(N2C(=O)C(Cl)=C(C)C2O)nc1 (centres unmarked) [AF56]             0
4  CC(C)C1=C(Cl)C(=O)N(c2cc(C(F)(F)F)ccn2)C1O (centres unmarked) [AF83]             2
5  COC(=O)c1cnc(N2C(=O)C(Cl)=C(C)C2O)cc1C(F)(F)F (centres unmarked) [AF42]             0

Go through the items and report each one's ALOMY damage score, application pre-emergence.
1. CC1=C(Cl)C(=O)N(c2cc(C(F)(F)Cl)ccn2)C1O (centres unmarked) [AF98]
2. COC1=C(C)C(O)N(c2cc(C(C)(C)F)c(C)nn2)C1=O (centres unmarked) [BI16]

Result ::
3
3

Go through the items and report each one's ALOMY damage score, application pre-emergence.
1. COC1=C(OC)C(O)N(c2cc(C(F)(F)F)c(C(F)(F)F)cn2)C1=O (centres unmarked) [AK4]
2. CC1=C(Cl)C(=O)N(c2cc(C(C)(C)C)c(Cl)nn2)C1O (centres unmarked) [BF1]
3. COC1=C(C)C(O)N(c2cc(C)c(C#N)nn2)C1=O (centres unmarked) [BI5]
4. CCc1cc(N2C(=O)C(Cl)=C(C)C2O)ncc1Br (centres unmarked) [AF99]

Result ::
1
2
0
2

---

System: Setaria faberi
assay_explanation: Post-emergence herbicidal activity, glasshouse pot test
Assay type: in vivo
Set-up: key: 0 = no damage to plant, 5 = total damage to plant
conditions: Application post-emergence, rate 1000 g/ha, evaluated after 13 days
Consider the following compounds; for each one, report its SETFA herbicidal damage score.
Numbers only.

These solved cases illustrate the format of a correct answer.
> print(dat)
                                   compound    study.target  result.value
1  C#CC(C)(C)NC(=O)c1ccc(N2C(=O)C(OC)=C(C)C2O)nn1 (stereo not drawn)  Setaria faberi             5
2  CC1=C(Cl)C(=O)N(c2ncc(F)cc2F)C1O (stereo not drawn)  Setaria faberi             1
3  COC1=C(C)C(O)N(c2cc(C(C)C)c(Cl)nn2)C1=O (stereo not drawn)  Setaria faberi             5
4  COC1=C(C)C(O)N(c2cc(C)c(C(=O)NC(C)C(C)C)cn2)C1=O (stereo not drawn)  Setaria faberi             5
5  CCOC1=C(C)C(O)N(c2cc(C(F)(F)F)ccn2)C1=O (stereo not drawn)  Setaria faberi             4

# input for lookup
Query :: Consider the compound CCOC(=O)c1cnc(N2C(=O)C(OC)=C(C)C2O)cc1Cl (stereo not drawn) and give its measured SETFA herbicidal damage score.
Result :: 5

---

Consider the following molecules; for each one, report its ALOMY damage score, application pre-emergence.
Test system: Alopecurus myosuroides
assay_explanation: Pre-emergence herbicidal activity, glasshouse pot test
Format: in vivo
conditions: pre-emergence spray, rate 1000 g/ha, evaluated after 13 days, scale 0-5
Give bare numbers.

These solved cases illustrate the format of a correct answer.
> print(dat)
                                   molecule  result.value
1  CCC1=C(Cl)C(=O)N(c2cc(C(C)(C)C#N)ncn2)C1O (stereo not drawn)             2
2  CCOC(=O)c1cnc(N2C(=O)C(OC)=C(C)C2O)cc1Cl (stereo not drawn)             1
3  COC1=C(C)C(O)N(c2cc(C(C)(C)F)c(C#N)nn2)C1=O (stereo not drawn)             4
4  CC1=C(Cl)C(=O)N(c2ccc(C(F)(F)F)nn2)C1O (stereo not drawn)             2
5  COC1=C(C)C(O)N(c2cc(NC(C)C)ncn2)C1=O (stereo not drawn)             0
6  CCN(CC)C(=O)c1cnc(N2C(=O)C(OC)=C(C)C2O)cc1C(F)(F)F (stereo not drawn)             4
7  CC1=C(Cl)C(=O)N(c2cc(C(F)(F)F)c(Cl)cn2)C1O (stereo not drawn)             3
8  CC(=O)OC1C(C)=C(Cl)C(=O)N1c1cc(C(F)(F)F)ccn1 (stereo not drawn)             3

Go through the items and report each one's ALOMY damage score, application pre-emergence.
1. COC1=C(C)C(O)N(c2cc(C)c(OC)nn2)C1=O (stereo not drawn)
2. CC1=C(Cl)C(=O)N(c2cc(N(C)C)ncn2)C1O (stereo not drawn)
3. COC1=C(C)C(O)N(c2cc(C(F)(F)F)c(Br)cn2)C1=O (stereo not drawn)
4. COC1=C(C)C(O)N(c2ccc([N+](=O)[O-])cn2)C1=O (stereo not drawn)
5. C#CC(C)(C)NC(=O)c1ccc(N2C(=O)C(OC)=C(C)C2O)nn1 (stereo not drawn)
6. COC1=C(C)C(O)N(c2cc(C(C)C)c(Cl)nn2)C1=O (stereo not drawn) [BI28]

Result ::
[3, 1, 4, 1, 2, 4]

Go through the items and report each one's ALOMY damage score, application pre-emergence.
1. CCO/C=C\c1cnc(N2C(=O)C(Cl)=C(C)C2O)cc1C(F)(F)F (stereo not drawn)
2. CCN(CC)C(=O)c1cnc(N2C(=O)C(Cl)=C(C)C2O)cc1C(F)(F)F (stereo not drawn)
3. CCc1cc(N2C(=O)C(Cl)=C(C)C2O)nnc1Cl (stereo not drawn)
4. CC1=C(Cl)C(=O)N(c2cc(C(C)(C)F)ccn2)C1O (stereo not drawn)
5. CC1=C(Cl)C(=O)N(c2cc(Cl)ccn2)C1O (stereo not drawn)
6. COC1=C(C)C(O)N(c2cc(N(C)C)ncn2)C1=O (stereo not drawn)

Result ::
[1, 0, 2, 3, 2, 1]

Query :: Consider the molecule CC1=C(Cl)C(=O)N(c2ccc([S+](C)[O-])cn2)C1O (stereo not drawn) and give its measured ALOMY damage score, application pre-emergence.
Result :: 2
